B1: glmS ribozyme (parent)
chain: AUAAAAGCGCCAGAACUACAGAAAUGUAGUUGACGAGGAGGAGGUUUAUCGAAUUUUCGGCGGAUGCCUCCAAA

Variants of: B1
assay.remarks: self-cleavage kobs at 40 uM GlcN6P; higher = faster cleavage; RNA array
measurement.setup: with glucosamine-6-phosphate
This sample holds only a part of the variants without activity.
Please enter YES where self-cleavage kobs at 40 uM GlcN6P is greater than or equal to 0.0001 s⁻¹, and NO where it is lower.

mutant.name: C8G U55C C61U
cat: NO

mutant.name: A14G A33G
cat: NO

mutant.name: A42U G66C
cat: NO

Given the entry U45C C67U , answer whether its self-cleavage kobs at 40 uM GlcN6P meets or surpasses 0.0001 s⁻¹. NO

Given the entry U31G G66A , answer whether its self-cleavage kobs at 40 uM GlcN6P meets or surpasses 0.0001 s⁻¹. YES

Given the entry G40U C61A G63C , answer whether its self-cleavage kobs at 40 uM GlcN6P meets or surpasses 0.0001 s⁻¹. NO

Given the entry C8U C10U , answer whether its self-cleavage kobs at 40 uM GlcN6P meets or surpasses 0.0001 s⁻¹. NO

Given the entry U55A G66A , answer whether its self-cleavage kobs at 40 uM GlcN6P meets or surpasses 0.0001 s⁻¹. YES

Given the entry U46G C67U , answer whether its self-cleavage kobs at 40 uM GlcN6P meets or surpasses 0.0001 s⁻¹. YES

Given the entry C10U G37C G44U U65C , answer whether its self-cleavage kobs at 40 uM GlcN6P meets or surpasses 0.0001 s⁻¹. NO

Given the entry G7U G13A , answer whether its self-cleavage kobs at 40 uM GlcN6P meets or surpasses 0.0001 s⁻¹. NO

Given the entry A15U A64G , answer whether its self-cleavage kobs at 40 uM GlcN6P meets or surpasses 0.0001 s⁻¹. YES

Given the entry A53C U54C , answer whether its self-cleavage kobs at 40 uM GlcN6P meets or surpasses 0.0001 s⁻¹. NO

Given the entry A33C G37A , answer whether its self-cleavage kobs at 40 uM GlcN6P meets or surpasses 0.0001 s⁻¹. NO
